# assayedSystem: T1, DFNB31_3, Q9P202
# T1 sequence (Q9P202 811-907, limits assumed, looked up): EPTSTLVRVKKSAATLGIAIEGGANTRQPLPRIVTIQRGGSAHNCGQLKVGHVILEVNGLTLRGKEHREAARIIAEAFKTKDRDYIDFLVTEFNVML
# test: holdup assay
# Design: key: below the threshold = too weak to quantify, mostly under pKd 3.1 to 4
# measurementSetup: plain residues with an end cap or a label only (N-terminal biotin on a linker: ado-ado)
observationType: pKd

Worked cases, pKd given:
{"binder": "KEKASTETEC [TRPM1, Q7Z4N2]", "pKd": 3.64}
{"binder": "MLPANYVEAI [NEB, P20929]", "pKd": "below the threshold"}
{"binder": "NSTHNLKDYV [CLDN20, P56880]", "pKd": "below the threshold"}
{"binder": "QLKSGRDSTV [TMEM178A, Q8NBL3]", "pKd": "below the threshold"}
{"binder": "PDSYHRRDFW [U2AF2, P26368]", "pKd": "below the threshold"}
{"binder": "VKQYADVEGF [HNRNPK, P61978;P61978-2]", "pKd": 3.98}
{"binder": "PLPPEEESWV [GAS2L2, Q8NHY3]", "pKd": 3.99}
{"binder": "WAKEKQHTRL [SLC17A1, Q14916]", "pKd": "below the threshold"}
{"binder": "HDDYFYHDEL [RCN2, Q14257]", "pKd": "below the threshold"}
{"binder": "RDYTQSSSSL [GRM5, P41594]", "pKd": "below the threshold"}

Note to self: pKd recorded for DLLGGGSDSI [TNRC6B, Q9UPQ9] was 4.01

Note to self: pKd recorded for KAEEKPPSKV [SCN4B, Q8IWT1] was below the threshold

Note to self: pKd recorded for KKTPVSRSHL [SLC22A3, O75751] was below the threshold

Note to self: pKd recorded for TFSRRPKTRV [CD226, Q15762] was below the threshold

Note to self: pKd recorded for EPAKETTTNV [SLC2A3, P11169] was 4.05

Note to self: pKd recorded for PSVYSRSQYV [CLDN8, P56748] was below the threshold

Note to self: pKd recorded for SQPLLVHDDV [KIT, P10721] was below the threshold

Note to self: pKd recorded for TNSKQGETTV [FZD1, Q9UP38] was 4.06
